assay: qHTS assay for small molecule agonists of the antioxidant response element (ARE) signaling pathway (AID 651741)
measurement.parameters: HepG2 ARE-bla reporter, beta-lactamase FRET ratio, 16 h; series mostly up to 96 µM
Excerpt: National Center for Advancing Translational Sciences [NCATS] NIH Chemical Genomics Center [NCGC] U.S. Environmental Protection Agency [EPA] National Institutes of Environmental Health Sciences [NIEHS] National Toxicology Program [NTP] Oxidative stress has been implicated in the pathogenesis of a variety of diseases ranging from cancer to neurodegeneration. […] The activation of the report gene under culture conditions can be detected by fluorescence intensity. […]
Records with an inconclusive call do not appear. Calls of active or inactive are those of the source. Calls come from the whole dose curve; as a rule, active = well fitted activation curve with a large enough effect in the signal ratio; inconclusive = small, poorly fitted or top-dose-only effect, or effect the other way, or a change in a side signal; inactive = flat fitted curve, though single readings scatter; the % refers to the signal ratio.
Pick one and only one: active, inactive

[Q] Given Cc1cscn1 , state the outcome it received in this test.
[A] inactive

[Q] Same again, this time with O=C(O)CN(CC(=O)O)CC(=O)O
[A] inactive

[Q] Can you check CCOC(C)(C)C next?
[A] inactive

[Q] Follow-up entry: COc1ccc(N=[N+]([O-])c2ccc(OC)cc2)cc1
[A] active

[Q] Also Cc1ccccc1C#N , if possible.
[A] inactive

[Q] Quick one: CC(=O)c1nccs1
[A] inactive

[Q] Can you handle O=P(O)(OCc1ccccc1)OCc1ccccc1 next?
[A] inactive

[Q] Let us now turn to C=CCOC(=O)COCCC(C)C
[A] inactive

[Q] Can you check NC(=O)c1ccccc1[N+](=O)[O-] next?
[A] inactive
